Data provenance: ChEMBL document CHEMBL3044919

Below is a list of entries, each paired with its recorded Ki value.
target: Sigma non-opioid intracellular receptor 1 (Cavia porcellus, UniProt Q60492); experiment: Displacement of [3H](+)pentazocine from sigma-1 receptor in Cavia porcellus (guinea pig) brain membranes
Sequence (Q60492 whole entry): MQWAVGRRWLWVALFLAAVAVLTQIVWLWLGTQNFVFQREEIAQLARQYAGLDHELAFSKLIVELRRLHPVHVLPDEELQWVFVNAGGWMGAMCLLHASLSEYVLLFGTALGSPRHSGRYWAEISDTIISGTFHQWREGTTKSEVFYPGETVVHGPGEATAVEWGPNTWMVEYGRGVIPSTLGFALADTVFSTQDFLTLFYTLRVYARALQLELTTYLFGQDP
Express it in nM; write the number only.

// known answers, use as guide
Compound: CCC(=O)c1ccc2c(c1)sc(=O)n2CCCN1CCCCC1
Reported Result: 2.3
--
Compound: CCCc1ccc2c(c1)sc(=O)n2CCCCN1CCCCC1
Reported Result: 2.9

Data request: Sample CN(C[C@@H]1C[C@@]1(CO)c1ccccc1)C12CC3CC(CC(C3)C1)C2 (relative stereo) — what was its Ki?
Data returned: 1.26

Data request: I have this compound here, CCCc1ccc2c(c1)OCC(=O)N2CCN1CCCCC1 , and I need its recorded Ki.
Data returned: 28

Data request: Consider the compound shown here: CCCc1ccc2c(c1)sc(=O)n2CCN1C[C@]2(C)CCC[C@]2(C)C1 What is its recorded Ki?
Data returned: 1.4

Data request: Look up Ki for this compound: CCC(=O)c1ccc2c(c1)oc(=O)n2CCCN1CCCCC1
Data returned: 8.5

* * *

species on record: Cavia porcellus; experiment: Selectivity ratio of Ki for sigma-2 receptor in Cavia porcellus (guinea pig) brain membranes to Ki for sigma-1 receptor in Cavia porcellus (guinea pig) brain membranes
Measure Name: Ratio Ki
// no unit string in output, number only

Sample records with Ratio Ki:
Molecule: CCCc1ccc2c(c1)sc(=O)n2CCCCN1CCCCC1
Ratio Ki: 4.5
--
Molecule: CCC(=O)c1ccc2c(c1)oc(=O)n2CCCN1CCCCC1
Ratio Ki: 58
--
Molecule: CCCc1ccc2c(c1)sc(=O)n2CCN1CCCCC1
Ratio Ki: 30

Data request: Param item = CCC(=O)c1ccc2c(c1)sc(=O)n2CCCN1CCCCC1 ; retrieve measured Ratio Ki.
Data returned: 87

Data request: Can you share its Ratio Ki? I mean this molecule: CN(C[C@@H]1C[C@@]1(CO)c1ccccc1)C12CC3CC(CC(C3)C1)C2 (relative stereo)
Data returned: 2

* * *

test: Displacement of [3H]DTG from sigma-1 receptor in Cavia porcellus (guinea pig) brain membranes; parameters: species or system Membrane
Measure Name: Ki

Structure As Smiles: CCCCc1ccc2c(c1)sc(=O)n2CCN1CCCCC1
Measure Name: Ki
Reported Result: > 1000 nM

Structure As Smiles: CCCc1ccc2c(c1)OCC(=O)N2CCN1CCCCC1
Measure Name: Ki
Reported Result: > 1000 nM

Structure As Smiles: CCCc1ccc2c(c1)sc(=O)n2CCN1C[C@]2(C)CCC[C@]2(C)C1
Measure Name: Ki
Reported Result: > 1000 nM

Data request: Entry CCCc1ccc2c(c1)sc(=O)n2CCN1CCCCCC1 : reported Ki = ?
Data returned: > 1000 nM

Data request: # query: Ki of entry CCCc1ccc2c(c1)sc(=O)n2CCCCN1CCCCC1
Data returned: 13 nM

Data request: # input compound: CCC(=O)c1ccc2c(c1)oc(=O)n2CCCN1CCCCC1 ; wanted: its Ki
Data returned: 496 nM

* * *

Ki listing for selected compounds.
molecular target: Sigma non-opioid intracellular receptor 1 (Cavia porcellus); test: Displacement of [3H](+)pentazocine from sigma-1 receptor in Cavia porcellus (guinea pig) brain membranes
Please reply with the bare figure in nM and do not write the unit itself.

Structure As Smiles: CCCc1ccc2c(c1)sc(=O)n2CCN1CCCCC1
Target Entity: Sigma non-opioid intracellular receptor 1 (Cavia porcellus)
Measure Name: Ki
Unit Tag: nM
Reported Result: 0.6

Data request: Suppose we examine the compound CCCc1ccc2c(c1)sc(=O)n2CCN1CCCCCC1 ; what Ki value has been reported?
Data returned: 0.56

Data request: What does the record list as Ki for CCCCc1ccc2c(c1)sc(=O)n2CCN1CCCCC1 ?
Data returned: 3.7

Data request: Which Ki is reported for this compound? CCCc1ccc2c(c1)sc(=O)n2CCCN1CCCCC1
Data returned: 1.2
